Tested on: W2
Experiment: qHTS profiling for inhibitors of Plasmodium falciparum proliferation (AID 504749); note: nearly all actives have a fitted effect of over 60% in size
Conditions: P. falciparum in erythrocytes, SYBR Green DNA, 72 h; series mostly up to 28.7 µM
Records with an inconclusive call do not appear. Active and inactive are the calls of the source. Calls come from the whole dose curve; as a rule, active = well fitted inhibition curve with a large enough effect; inconclusive = small, poorly fitted or top-dose-only effect; inactive = flat fitted curve, though single readings scatter.
Possible outcomes: label 1 for active, label 0 for inactive

compound=COC(=O)[C@@H]1[C@@H]2C[C@H]3c4[nH]c5ccccc5c4CCN3C[C@@H]2CC[C@@H]1O answer_label="label 0"
compound=CC(C)C[C@@H](NC(=O)[C@H](Cc1ccccc1)NC(=O)c1cnccn1)B(O)O answer_label="label 1"
compound="CCCCC(=O)N(Cc1ccc(-c2ccccc2-c2nn[nH]n2)cc1)C(C(=O)O)C(C)C (stereo unspecified)" answer_label="label 1"
compound=O=C1c2cccc3c2[C@@H](CCC3)CN1[C@@H]1CN2CCC1CC2 answer_label="label 1"
compound="C/C=C1\\C2C=C(C)CC1(N)c1ccc(=O)[nH]c1C2 (stereo unspecified)" answer_label="label 0"
compound="CC(=O)[C@H]1CC[C@H]2C3CC=C4C[C@@H](O)CC[C@]4(C)C3CC[C@]12C (stereo partly specified)" answer_label="label 0"

// provenance: PubChem BioAssay (NCATS)
